- target: PDE11A4 (Homo sapiens, UniProt Q9HCR9)
- Construct: purchased BPS Biosciences (San Diego, Calif.)
- Sequence (Q9HCR9 whole entry): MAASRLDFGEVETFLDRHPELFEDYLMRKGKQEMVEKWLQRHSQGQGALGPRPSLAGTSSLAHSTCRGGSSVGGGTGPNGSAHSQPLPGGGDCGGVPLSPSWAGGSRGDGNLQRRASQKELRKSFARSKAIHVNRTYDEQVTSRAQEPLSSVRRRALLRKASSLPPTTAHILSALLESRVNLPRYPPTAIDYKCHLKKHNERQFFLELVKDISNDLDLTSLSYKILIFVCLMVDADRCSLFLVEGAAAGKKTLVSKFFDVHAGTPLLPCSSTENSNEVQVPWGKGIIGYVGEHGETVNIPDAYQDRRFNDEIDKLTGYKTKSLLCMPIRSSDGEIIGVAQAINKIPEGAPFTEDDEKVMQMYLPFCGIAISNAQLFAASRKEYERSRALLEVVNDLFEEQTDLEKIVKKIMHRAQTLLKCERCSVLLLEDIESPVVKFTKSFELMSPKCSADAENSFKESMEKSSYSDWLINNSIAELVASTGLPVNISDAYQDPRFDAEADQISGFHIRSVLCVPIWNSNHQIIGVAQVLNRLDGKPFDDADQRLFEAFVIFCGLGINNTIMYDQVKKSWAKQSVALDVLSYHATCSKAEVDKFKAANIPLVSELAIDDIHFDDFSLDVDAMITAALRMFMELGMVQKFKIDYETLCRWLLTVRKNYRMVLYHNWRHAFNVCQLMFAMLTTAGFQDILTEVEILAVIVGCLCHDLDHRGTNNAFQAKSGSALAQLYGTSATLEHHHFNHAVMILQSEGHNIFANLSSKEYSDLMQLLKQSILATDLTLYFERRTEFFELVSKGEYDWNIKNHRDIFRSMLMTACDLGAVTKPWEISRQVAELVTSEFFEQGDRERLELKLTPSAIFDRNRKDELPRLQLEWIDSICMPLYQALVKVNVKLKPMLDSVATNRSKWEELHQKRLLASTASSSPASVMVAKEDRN
- test-name: In vitro PDE assay
- Assay type: biochemical
result-type: IC50

Req: Find the measured IC50: item C=C(C)Cn1c(SCC(=O)c2cccs2)nc2sc3c(c2c1=O)CCCC3 , target or system PDE11A4 (Homo sapiens, UniProt Q9HCR9).
Resp: > 50 µM

----------
- target: PDE4D2 (Homo sapiens)
- Construct: purchased BPS Biosciences (San Diego, Calif.)
- test-name: In vitro PDE assay
- Type: biochemical
- recorded-conditions: Table 9A
result-type: pIC50
Please treat pIC50 as minus the base-10 logarithm of the molar concentration.

# example entries with known answers
# entry-smiles, pIC50
rows = [
    ("C=C(C)Cn1c(SCC(=O)c2ccccn2)nc2sc3c(c2c1=O)CCCC3", 5.31),
    ("C=C(C)Cn1c(SCC(=O)N2Cc3ccccc3C2)nc2sc3c(c2c1=O)CCCC3", 4.34),
    ("C=CCn1c(SCC(=O)c2ccncc2)nc2sc3c(c2c1=O)CCCC3", 5.30),
    ("C=C(C)Cn1c(SCC(=O)c2cccs2)nc2sc3c(c2c1=O)CCCC3", 5.89),
    ("C=CCn1c(SCC(=O)c2ccccn2)nc2sc3c(c2c1=O)CCCC3", 4.60),
]

Moving on to the next compound.
Req: Could you tell me which pIC50 is on file for C=C(C)Cn1c(SCC(=O)N2CCCC[C@H]2C)nc2sc3c(c2c1=O)CCCC3 ?
Resp: 5.92

----------
- target: PDE4D2 (Homo sapiens, UniProt Q08499)
- Construct: purchased BPS Biosciences (San Diego, Calif.)
- Sequence (Q08499 303-809): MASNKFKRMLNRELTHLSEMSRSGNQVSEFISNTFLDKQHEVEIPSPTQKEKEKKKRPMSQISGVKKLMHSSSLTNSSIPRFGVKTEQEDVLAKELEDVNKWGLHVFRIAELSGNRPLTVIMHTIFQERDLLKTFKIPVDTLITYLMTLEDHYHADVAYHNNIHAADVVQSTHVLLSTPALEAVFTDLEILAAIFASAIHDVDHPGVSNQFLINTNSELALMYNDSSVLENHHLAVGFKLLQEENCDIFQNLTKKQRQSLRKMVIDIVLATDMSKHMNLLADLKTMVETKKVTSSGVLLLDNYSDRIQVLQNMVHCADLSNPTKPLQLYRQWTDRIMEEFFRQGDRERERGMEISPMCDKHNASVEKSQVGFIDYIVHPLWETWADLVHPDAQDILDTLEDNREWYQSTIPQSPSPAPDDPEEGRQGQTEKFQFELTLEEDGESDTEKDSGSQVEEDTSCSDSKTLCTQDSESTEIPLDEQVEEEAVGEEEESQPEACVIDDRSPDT
- test-name: In vitro PDE assay
- Format: biochemical
- recorded-conditions: Table 9B
result-type: IC50 (µM)
The figure you give is taken to be in µM; do not add the unit.

Req: Could you tell me which IC50 is on file for C=CCn1c(SCC(=O)c2ccccc2)nc2scc(-c3ccccc3)c2c1=O [HI696] ?
Resp: 7.4

----------
Each record here notes measured EC50.
- Tested on: RWGT2
- test-name: Cell viability assay (CellTiter-Blue, 72 hr)
- Type: cell-based, Human
- recorded-conditions: human cancer cells; read-out: CELL KILLING EC50 (μM) Lung Squam, NSCLC RWGT2
The figure you give is taken to be in µM; do not add the unit.

# example entries with known answers
# molecule, EC50, µM
data = [
    ("Cn1c(SCC(=O)c2ccc(F)cc2)nc2sc3c(c2c1=O)CCCC3 [HI302]", 22.9),
    ("C=CCn1c(SCC(=O)c2ccc(Cl)s2)nc2sc(C)c(C)c2c1=O [HI499]", 45.8),
    ("C=CCn1c(SCC(=O)c2ccccc2)nc2sc(C)cc2c1=O [HI277]", 30.5),
    ("C=C(C)Cn1c(SCC(=O)N2Cc3ccccc3C2)nc2sc3c(c2c1=O)CCCC3 [Formula 1KMT]", 51.1),
    ("C=C(C)Cn1c(SCC(=O)c2ccccn2)nc2sc3c(c2c1=O)CCCC3 [JEH-3-063]", 23.7),
]

Moving on to the next molecule.
Req: Could you tell me which EC50 is on file for C=C(C)Cn1c(SCC(=O)c2ccc(F)cc2)nc2sc3c(c2c1=O)CCCC3 [HI0863] ?
Resp: 38.8

----------
Each record here notes measured pEC50.
- Tested on: Hedgehog signaling (TM3-Gli-Luc)
- test-name: TM3-Gli-Luc luciferase reporter assay stimulated with 20 nM SAG
- Assay type: cell-based
- recorded-conditions: TM3-Gli-Luc reporter line stimulated with 20 nM SAG; mean ± SEM; Table 14; read-out: TM3-Gli-Luc EC50
Please treat pEC50 as minus the base-10 logarithm of the molar concentration.

# example entries with known answers
# molecule, value-reported
rows = [
    ("C=C(C)Cn1c(SCC(=O)c2cccs2)nc2sc3c(c2c1=O)CCCC3", 5.87),
    ("CCCn1c(SCC(=O)c2cccs2)nc2sc3c(c2c1=O)CCCC3", 5.89),
    ("O=C(CSc1nc2ccccc2c(=O)n1C1CC1)c1cccs1 [Formula 14b]", 6.16),
]

Moving on to the next molecule.
Req: Could you tell me which pEC50 is on file for O=C(CSc1nc2sccc2c(=O)n1C1CC1)c1cccs1 [Formula 19b] ?
Resp: 6.03

----------
- Test system: Gli1 mRNA
- test-name: Hh % Inh.: SAG-induced Gli1 expression in C3H10T½ cells (qPCR)
- Format: cell-based
- recorded-conditions: Mus musculus, C3H 10T1/2; 10 pM [sic]; SAG-induced (100 nM), 24 hours; read-out: C3H10T1/2 qPCR, Gh1 mRNA % Inh., 10 pM
Label y when inhibition at 10 µM is at or above 50%; anything below gets n.

# entry-smiles, target, label-value
rows = [
    ("C=C(C)Cn1c(SCC(=O)c2cccs2)nc2sc3c(c2c1=O)CCOC3", "Gli1 mRNA", "y"),
    ("C=C(C)Cn1c(SCC(=O)c2cccs2)nc2ccccc2c1=O", "Gli1 mRNA", "y"),
    ("C=C(C)Cn1c(SCC(=O)c2cccs2)nc2ncccc2c1=O", "Gli1 mRNA", "n"),
]

We next turn to a different compound, shown below.
Req: Quick check, inhibition at 10 µM >= 50%? C=C(C)Cn1c(SCC(=O)c2cccs2)nc2sc3c(c2c1=O)CCN(C(=O)c1ccco1)C3
Resp: y

----------
- target: PDE4D3 (Homo sapiens, UniProt Q08499)
- Construct: purchased BPS Biosciences (San Diego, Calif.); kinetic studies by Millipore (St. Louis, Mo.)
- Sequence (Q08499 1-673 isoform Q08499-2): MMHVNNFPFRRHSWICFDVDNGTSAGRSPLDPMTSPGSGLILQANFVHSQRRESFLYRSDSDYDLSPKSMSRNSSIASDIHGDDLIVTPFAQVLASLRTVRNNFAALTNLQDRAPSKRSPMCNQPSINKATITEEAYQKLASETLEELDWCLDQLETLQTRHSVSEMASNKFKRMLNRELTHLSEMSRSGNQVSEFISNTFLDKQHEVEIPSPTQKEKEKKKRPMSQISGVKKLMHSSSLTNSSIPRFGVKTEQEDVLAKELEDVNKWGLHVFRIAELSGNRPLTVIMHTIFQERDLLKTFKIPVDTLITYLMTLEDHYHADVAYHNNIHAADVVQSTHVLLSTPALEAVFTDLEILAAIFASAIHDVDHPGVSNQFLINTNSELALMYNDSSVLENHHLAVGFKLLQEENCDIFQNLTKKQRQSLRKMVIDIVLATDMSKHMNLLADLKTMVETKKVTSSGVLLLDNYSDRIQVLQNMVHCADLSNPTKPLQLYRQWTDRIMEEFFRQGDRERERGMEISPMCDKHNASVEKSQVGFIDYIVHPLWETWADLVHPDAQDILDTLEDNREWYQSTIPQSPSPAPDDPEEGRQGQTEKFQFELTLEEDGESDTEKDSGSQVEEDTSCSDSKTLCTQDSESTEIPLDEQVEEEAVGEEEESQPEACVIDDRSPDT
- test-name: In vitro PDE assay
- Type: biochemical
- recorded-conditions: Table 9A
Each record here notes measured IC50.
The figure you give is taken to be in µM; do not add the unit.

# example entries with known answers
# entry-smiles, IC50 / µM
records = [
    ("C=CCn1c(SCC(=O)c2ccncc2)nc2sc3c(c2c1=O)CCCC3", 8.2),
    ("C=CCn1c(SCC(=O)N2CCN(C)CC2)nc2sc3c(c2c1=O)CCCC3", 1.8),
    ("C=C(C)Cn1c(SCC(=O)c2ccccn2)nc2sc3c(c2c1=O)CCCC3", 23),
    ("O=C(CSc1nc2sc3c(c2c(=O)n1-c1ccccc1)CCCC3)c1cccs1", 14),
    ("C=C(C)Cn1c(SCC(=O)N2CCOCC2)nc2sc3c(c2c1=O)CCCC3", 4.1),
]

Req: Find the measured IC50: item C=C(C)Cn1c(SCC(=O)N2Cc3ccccc3C2)nc2sc3c(c2c1=O)CCCC3 , target or system PDE4D3 (Homo sapiens, UniProt Q08499).
Resp: 30

Req: Find the measured IC50: item C=C(C)Cn1c(SCC(=O)c2ccccc2)nc2sc3c(c2c1=O)CCCC3 , target or system PDE4D3 (Homo sapiens, UniProt Q08499).
Resp: 18

Req: Find the measured IC50: item O=C(CSc1nc2sc3c(c2c(=O)n1C1CC1)CCN(C(=O)c1ccco1)C3)c1ccccc1 , target or system PDE4D3 (Homo sapiens, UniProt Q08499).
Resp: 6.4

Req: Find the measured IC50: item C=C(C)Cn1c(SCC(=O)c2ccncc2)nc2sc3c(c2c1=O)CCCC3 , target or system PDE4D3 (Homo sapiens, UniProt Q08499).
Resp: 24

Req: Find the measured IC50: item C=CCn1c(SCC(=O)N2CCCC[C@H]2C)nc2sc3c(c2c1=O)CCCC3 , target or system PDE4D3 (Homo sapiens, UniProt Q08499).
Resp: 11
